Record form. Attribute: Kd. Fill in for each entry.
- System under test: von Willebrand factor (VWF) (Homo sapiens, UniProt P04275 P04275:764-2813)
- Test summary: filter; Bmax 67%; 2 mM CaCl2, 37 C
- Test conditions: tags: factor VIII free human purified VWF, Haematologic Technologies Inc; label: 5'-32P
One number for each entry, in nM.

ACGAACUGCCCUCGAUCGACGCACAGACGUAAAAA (ssRNA, 2'-F C9,C10,C11,C20,G21,C22,U30; rest 2'-OMe; 3' idT) [T83 vrt6] | 209

Q: Item under review: ACGAACUGCCCUCGAUCGACGCACAGACGUACCCG (ssRNA, 2'-F C9,C10,C11,C20,G21,C22,U30; rest 2'-OMe; 3' idT) [T82 vrt6] . Reported Kd?
Result: 223
